All values here come from PubChem BioAssay AID2060351.

Tested on: 521955-158-R7-J2-PDC spheroids, viability % test/control
Assay: Anticancer human tumor 521955-158-R7-J2-PDC patient-derived pancreatic carcinoma cell line growth inhibition [TAK]; active = viability on the fitted dose curve at most 10% of control; inactive = the rest
Settings: second compound 0.949 µM; first compound 0.1 µM; spheroids with HUVEC and MSC
Your reply should match one of these outcome classes. true for active, false for inactive

[Q] Given COC1CC2CCC(C)C(O)(O2)C(=O)C(=O)N2CCCCC2C(=O)OC(C(C)CC2CCC(OCCO)C(OC)C2)CC(=O)C(C)C=C(C)C(O)C(OC)C(=O)C(C)CC(C)C=CC=CC=C1C (stereo unspecified) + CC(C)NCC(C(=O)N1CCN(c2ncnc3c2C(C)CC3O)CC1)c1ccc(Cl)cc1 , state the outcome it received in this test.
[A] false

[Q] What do you have for CC(C)(C)c1nc(-c2cccc(NS(=O)(=O)c3c(F)cccc3F)c2F)c(-c2ccnc(N)n2)s1 + CC(C)NCC(C(=O)N1CCN(c2ncnc3c2C(C)CC3O)CC1)c1ccc(Cl)cc1 ?
[A] false

[Q] Let us now turn to CC(C)n1nc(-c2ccc3oc(N)nc3c2)c2c(N)ncnc21 + CC(C)NCC(C(=O)N1CCN(c2ncnc3c2C(C)CC3O)CC1)c1ccc(Cl)cc1
[A] false

[Q] What about this compound? COc1c(OCCCN2CCOCC2)ccc2c3n(c(=NC(=O)c4cnc(N)nc4)nc12)CCN3 + CC(C)NCC(C(=O)N1CCN(c2ncnc3c2C(C)CC3O)CC1)c1ccc(Cl)cc1
[A] false

[Q] And Cc1nc(NC(=O)N2CCCC2C(N)=O)sc1-c1ccnc(C(C)(C)C(F)(F)F)c1 (stereo unspecified) + CC(C)NCC(C(=O)N1CCN(c2ncnc3c2C(C)CC3O)CC1)c1ccc(Cl)cc1 ?
[A] false

[Q] Record: CC(C)CC(NC(=O)CNC(=O)c1cc(Cl)ccc1Cl)B1OC(=O)CC(CC(=O)O)(C(=O)O)O1 (stereo unspecified) + CC(C)NCC(C(=O)N1CCN(c2ncnc3c2C(C)CC3O)CC1)c1ccc(Cl)cc1
[A] true

* * *

System: 521955-158-R7-J2-PDC spheroids, viability % test/control
Assay: Anticancer human tumor 521955-158-R7-J2-PDC cell line growth inhibition [TAK];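 note: spheroids exposed to compound for 7 days before readout; 100% = DMSO vehicle control wells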
Conditions: second compound 0.949 µM; first compound 0.001 µM; active compounds read low; spheroids with HUVEC and MSC
METRIC: viability, T/C (%)
Supply the numeric figure in %, leaving out any unit text.

[Q] Tell me reported viability, T/C for COC1CC2CCC(C)C(O)(O2)C(=O)C(=O)N2CCCCC2C(=O)OC(C(C)CC2CCC(OCCO)C(OC)C2)CC(=O)C(C)C=C(C)C(O)C(OC)C(=O)C(C)CC(C)C=CC=CC=C1C (centres undefined) + CC(C)NCC(C(=O)N1CCN(c2ncnc3c2C(C)CC3O)CC1)c1ccc(Cl)cc1 , tested with 521955-158-R7-J2-PDC spheroids, viability % test/control.
[A] 73.5

[Q] Also CC(C)CC(NC(=O)C(Cc1ccccc1)NC(=O)c1cnccn1)B(O)O (centres undefined) + CC(C)NCC(C(=O)N1CCN(c2ncnc3c2C(C)CC3O)CC1)c1ccc(Cl)cc1 , if possible.
[A] 82.8

[Q] Note, next up: CC(C)CC(NC(=O)CNC(=O)c1cc(Cl)ccc1Cl)B1OC(=O)CC(CC(=O)O)(C(=O)O)O1 (centres undefined) + CC(C)NCC(C(=O)N1CCN(c2ncnc3c2C(C)CC3O)CC1)c1ccc(Cl)cc1
[A] 92.2

[Q] Next molecule: CC(C)n1nc(-c2ccc3oc(N)nc3c2)c2c(N)ncnc21 + CC(C)NCC(C(=O)N1CCN(c2ncnc3c2C(C)CC3O)CC1)c1ccc(Cl)cc1
[A] 84.9
